- SYSTEM UNDER TEST: T1, soluble human recombinant CD4 expressed in baculovirus (human, UniProt P01730 26-396, limits assumed)
- T1 construct: Coated on plates for the ELISA and covalently immobilised on the sensor for BIAcore; Only called soluble; also called soluble CD4; CD4 expressed in the baculovirus
- TEST NAME: SPR (BIAcore), CD4 immobilised, Exp. 1
MEASUREMENT NAME: kon (M⁻¹ s⁻¹)
Express the result in M⁻¹ s⁻¹ but write the number alone.

# binder mutant Fab F32-H of the 13B8.2 antibody (Fab, V domains shown, Chimeric Fab with human CH1-γ1 and Cκ; baculovirus/Sf9; also called F32 mutant Fab) VH: QVQLKQSGPGLVQPSQSLSITCTVSGFSLTTAGVHWVRQSPGKGLEWLGVIWRSGITDYNVPFMSRLSITKDNSKSQVFFKLNSLQPDDTAIYYCAKNDPGTGFAYWGQGTLVTVSA VL: DIQMTQSPASLSASVGETVTFTCRASENIYSYLAWYQQKQGKSPQLLVHDAKTLAEGVPSRFSGGGSGTQFSLKINTLQPEDFGTYYCQHHYGNPPTFGGGTKLEIK ; its kon = 18300

Reported kon ( control mutant Fab V61-H of the 13B8.2 antibody (Fab, V domains shown, Chimeric Fab with human CH1-γ1 and Cκ; baculovirus/Sf9; Control position, not a Spot contributor residue; also called V61-Hcontrol) VH: QVQLKQSGPGLVQPSQSLSITCTVSGFSLTTFGVHWVRQSPGKGLEWLGVIWRSGITDYNAPFMSRLSITKDNSKSQVFFKLNSLQPDDTAIYYCAKNDPGTGFAYWGQGTLVTVSA VL: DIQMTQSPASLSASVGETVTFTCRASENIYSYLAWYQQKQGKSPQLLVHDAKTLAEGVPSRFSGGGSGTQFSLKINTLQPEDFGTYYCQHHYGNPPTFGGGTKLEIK ) = 86800

// sample mutant Fab Y36-L of the 13B8.2 antibody (Fab, V domains shown, Chimeric Fab with human CH1-γ1 and Cκ; baculovirus/Sf9) VH: QVQLKQSGPGLVQPSQSLSITCTVSGFSLTTFGVHWVRQSPGKGLEWLGVIWRSGITDYNVPFMSRLSITKDNSKSQVFFKLNSLQPDDTAIYYCAKNDPGTGFAYWGQGTLVTVSA VL: DIQMTQSPASLSASVGETVTFTCRASENIYSYLAWAQQKQGKSPQLLVHDAKTLAEGVPSRFSGGGSGTQFSLKINTLQPEDFGTYYCQHHYGNPPTFGGGTKLEIK , its kon was 25600

For this binder ( wild recombinant chimeric Fab fragment of the 13B8.2 anti-CD4 antibody (Fab, V domains shown, Chimeric Fab: murine V domains fused to human CH1-γ1 (Fdγ1) and human Cκ, expressed in baculovirus/Sf9 cells, purified on protein G; also called Fabwild 13B8.2; wild Fab) VH: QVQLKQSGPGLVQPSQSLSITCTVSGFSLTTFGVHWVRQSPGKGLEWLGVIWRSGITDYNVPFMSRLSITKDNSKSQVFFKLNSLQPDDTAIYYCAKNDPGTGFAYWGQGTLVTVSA VL: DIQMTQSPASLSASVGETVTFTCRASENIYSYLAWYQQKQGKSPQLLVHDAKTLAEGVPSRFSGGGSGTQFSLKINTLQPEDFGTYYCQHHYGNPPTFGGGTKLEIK ), measured kon is 3800

Entry source: patent US20050226874A1
